- experiment.summary: Clearance in rat at 0.5 mg/kg
- Type: ADME, organism-based
- recorded.conditions: in vivo
endpoint: clearance

>>> measured_result("CN1CCN(c2cccc3c2CCN(C(=O)/C=C/c2c(-n4cnnn4)ccc(Cl)c2F)[C@@H]3C(=O)Nc2ccc(C(=O)O)cc2)C(=O)C1 [BMS-962212]")
"31 mL/min/kg"

====

- experiment.summary: Total AUC in cynomolgus monkey at 2.03 mg/kg
- Type: ADME, organism-based, Macaca fascicularis
- Set-up: dose 2.03 mg/kg, time AUCmax
- recorded.conditions: in vivo
endpoint: AUC (µM·h)

>>> measured_result("CN1CCN(c2cccc3c2CCN(C(=O)/C=C/c2c(-n4cnnn4)ccc(Cl)c2F)[C@@H]3C(=O)Nc2ccc(C(=O)O)cc2)C(=O)C1")
1.59
